# method notes: caspase-8 TRAIL sensitization, hit retest, confirmation, cell-based, NB7+caspase-8, with/without TRAIL, luminescence panel (AID 651596)
# conditions used: NB7 neuroblastoma + caspase-8, without TRAIL, luminescence viability, without TRAIL, mean of runs, at 10 µM
Exercise: for every item that follows, state its recorded activity.
Numbers only, in %.

Give measured activity for every item shown.
1. CNC(=O)Oc1ccc(-c2cn3cc(Cl)ccc3n2)cc1
2. Oc1ccc(-[n+]2c(-c3ccccc3)cc(-c3ccccc3)cc2-c2ccccc2)cc1
3. Cc1ccccc1CN1Cc2cnnn2-c2ccccc2C1C#N (centres undefined)

[84.1, 59.6, 78.2]

Give measured activity for every item shown.
1. CC(=O)OC(C)(C)/C=C/C(=O)C(C)(O)C1[C@H](O)C[C@@]2(C)C3CC=C4C(CC[C@@H](O)C4(C)C)[C@]3(CO)C(=O)C[C@]12C (some centres undefined)
2. COc1ccc(-n2nnnc2C(c2cc3ccccc3o2)N2CCC(n3c(=O)[nH]c4ccccc43)CC2)cc1 (centres undefined)
3. Cc1ccccc1-[n+]1c(-c2ccccc2)cc(-c2ccccc2)cc1-c1ccccc1
4. C=CCn1c(O)c(C(CC)=NCc2cc(OC)cc(OC)c2)c(=O)[nH]c1=O
5. CC1CCC(C(C)C)C(OC(=O)Cn2c(COc3ccccc3)[n+](C)c3ccccc32)C1 (centres undefined)
6. CNC(=O)Oc1cccc(-c2cn3cc(Cl)ccc3n2)c1

[71.7, 62.5, 64.1, 37.5, 57.7, 83]

###

# assayed system: PEG-3 (UniProt Q6IN02)
# Sequence (Q6IN02 whole entry, looked up): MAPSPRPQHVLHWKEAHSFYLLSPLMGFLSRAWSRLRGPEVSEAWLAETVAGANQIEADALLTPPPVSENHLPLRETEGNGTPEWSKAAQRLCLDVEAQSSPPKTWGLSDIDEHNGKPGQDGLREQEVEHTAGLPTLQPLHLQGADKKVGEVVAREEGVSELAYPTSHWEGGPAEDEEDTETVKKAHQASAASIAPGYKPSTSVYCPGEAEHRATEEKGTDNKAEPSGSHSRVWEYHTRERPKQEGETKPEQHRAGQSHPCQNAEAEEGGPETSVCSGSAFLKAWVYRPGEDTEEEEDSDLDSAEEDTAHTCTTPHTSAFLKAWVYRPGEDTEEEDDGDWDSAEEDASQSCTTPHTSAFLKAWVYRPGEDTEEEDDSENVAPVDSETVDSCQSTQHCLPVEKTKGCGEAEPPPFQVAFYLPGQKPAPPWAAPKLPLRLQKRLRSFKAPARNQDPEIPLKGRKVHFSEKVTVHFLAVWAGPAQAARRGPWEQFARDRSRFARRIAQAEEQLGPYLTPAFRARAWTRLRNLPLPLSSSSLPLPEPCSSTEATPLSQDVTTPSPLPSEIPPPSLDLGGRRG
# method notes: Peg3 promoter luciferase inhibitors, potency, dose response, cell-based, HeLa, CREF/GAPDH counter-screen panel (AID 624167)
# conditions used: HeLa PEG-Prom luciferase reporter, overnight, CREF/GAPDH counter-screens; run 2, dose range 1, at 100 µM (top of the series)
Exercise: for every item that follows, state its recorded inhibition.
Numbers only, in %.

See these solved cases before continuing.
# compound, assayed system, inhibition, %
records = [
    ("CC(C)(C)n1nnnc1C(CCc1ccccc1)N1CCC(n2c(=O)[nH]c3ccccc32)CC1 (centres undefined)", "PEG-3 (UniProt Q6IN02)", 92.6),
    ("C[C@@H]1C[C@@H]([C@H](O)CC2CC(=O)NC(=O)C2)C(=O)[C@@H](C)C1", "PEG-3 (UniProt Q6IN02)", 101),
    ("O=c1c2ccccc2nc(CSc2ncnc3nc[nH]c23)n1-c1ccc(Cl)c(Cl)c1", "PEG-3 (UniProt Q6IN02)", 33.8),
    ("CC(=O)OC(C)(C)/C=C/C(=O)C(C)(O)C1[C@H](O)C[C@@]2(C)C3CC=C4C(CC[C@@H](O)C4(C)C)[C@]3(CO)C(=O)C[C@]12C (some centres undefined)", "PEG-3 (UniProt Q6IN02)", 101),
    ("CCC1(OC(=O)CN)C(=O)OCc2c1cc1n(c2=O)Cc2cc3ccccc3nc2-1 (centres undefined)", "PEG-3 (UniProt Q6IN02)", 96.5),
    ("O=C1NC(=S)NC(=O)C1=Cc1cccn1-c1ccc(O)cc1", "PEG-3 (UniProt Q6IN02)", 101),
    ("COc1ccc(CNCCc2c(C)[nH]c3ccc(OC(F)(F)F)cc23)c(OC)c1", "PEG-3 (UniProt Q6IN02)", 101),
    ("O=[N+]([O-])c1cc(F)c(N2CCCCCC2)cc1N1CCNCC1", "PEG-3 (UniProt Q6IN02)", 101),
]

As a next step, examine the compound that follows.
I'd like to know its inhibition. The compound in question is `c1ccc(-c2cc(-c3ccccc3)[n+](-c3ccccc3)c(-c3ccccc3)c2)cc1`
99.1

###

# assayed system: PEG-3 (UniProt Q6IN02)
# method notes: Peg3 promoter luciferase inhibitors, potency, dose response, cell-based, HeLa, CREF/GAPDH counter-screen panel (AID 624167)
# conditions used: HeLa PEG-Prom luciferase reporter, overnight, CREF/GAPDH counter-screens; run 2, dose range 1, at 100 µM (top of the series)
Exercise: for every item that follows, state its recorded inhibition.
One number for each entry, in %.

See these solved cases before continuing.
# molecule, inhibition (%)
data = [
    ("COC(COC(N)=O)C1=C(N2CC2)C(=O)C(C)=C(N2CC2)C1=O (stereo not drawn)", 101),
    ("O=Cc1cn(Cc2ccc(F)cc2)c2ccccc12", 60.7),
    ("CCN(CC)C(=O)c1ccc(NC(=O)Nc2ccccc2F)cc1", 93.2),
    ("O=[N+]([O-])c1ccc(NC2CCN(Cc3ccccc3)CC2)c2ccncc12", 99),
    ("COc1cccc(C2CC3C(=O)C=CC2N3Cc2ccccc2)c1 (stereo not drawn)", 100),
    ("O=C1NC(=O)N(Cc2ccco2)C(=O)/C1=C/C=C/c1ccco1", 102),
]

Give measured inhibition for every item shown.
1. CCCCn1nnnc1C(CCSC)N1CCC(n2c(=O)[nH]c3ccccc32)CC1 (stereo not drawn)
2. CC1=CC2OC3CC4OC(=O)C=CC=CC(C(C)O)OCC(O)C(C)CC(=O)OCC2(CC1O)C4(C)C31CO1 (stereo not drawn)

1: 71.8; 2: 99.3

###

# assayed system: Tumor necrosis factor receptor superfamily member 10B (Homo sapiens)
# method notes: caspase-8 TRAIL sensitization, hit retest, confirmation, cell-based, NB7+caspase-8, with/without TRAIL, luminescence panel (AID 651596)
# conditions used: NB7 neuroblastoma + caspase-8, TRAIL sensitization, luminescence viability, with TRAIL, mean of runs, at 10 µM, stronger effect = higher value
We label by threshold. Values of activity strictly beneath 40% are Met. Values of 40% and up are Not met.

Previously resolved entries follow.
# compound, classification
measured = [
    ("CCOC(=O)[C@]12Cc3cc(Cl)ccc3[C@H]1N(C1CCCCC1)C(=O)c1ccccc12", "Not met"),
    ("CC(C)(O)/C=C/C(=O)C(C)(O)C1C(O)CC2(C)C3CC=C4C(C=C(O)C(=O)C4(C)C)C3(C)C(=O)CC12C (stereo not drawn)", "Not met"),
    ("CCOC(=O)[C@]12Cc3cc(OC)ccc3[C@H]1N(C(C)C)C(=O)c1cc(OC)ccc12", "Met"),
    ("Cc1ccccc1CN1Cc2cnnn2-c2ccccc2C1C#N (stereo not drawn)", "Met"),
    ("O=c1[nH]c2ccccc2n1C1CCN(C(c2cc3ccccc3o2)c2nnnn2Cc2ccccc2)CC1 (stereo not drawn)", "Not met"),
]

Consider the compound `CC[C@H](C)[C@@H]1NC(=O)CNC(=O)c2csc(n2)[C@H](C(C)(C)O)OC(=O)C(C)(C)[C@H](CCCC(C)(Cl)Cl)OC(=O)c2csc1n2` . Is its activity strictly less than 40%?
Not met

Consider the compound CC1=CC2OC3CC4OC(=O)C=CC=CC(=O)OCCC(C)C(O)C(=O)OCC2(CC1O)C4(C)C31CO1 (stereo not drawn) . Is its activity strictly less than 40%?
Not met

###

# method notes: inhibition of Brca1/Bard1 split-luciferase complementation, confirmation, counter-screen for Mdm2/MdmX interaction inhibitor project, luminescence, single concentration (AID 504668)
# conditions used: Brca1/Bard1 bimolecular luciferase complementation counterscreen, at 8 µM, stronger effect = higher value
Label scheme for inhibition: lower than 30% is Not satisfied, 30% and above is Satisfied.

Previously resolved entries follow.
# substance smiles, classification
rows = [
    ("Cn1c(NN=O)nc2ccccc21", "Satisfied"),
    ("Cc1cccc(-n2c(O)c(/C=C3/C(c4ccccc4)=Nc4ccccc43)c(=O)[nH]c2=O)c1", "Satisfied"),
]

Hello, I need to know if `CCOC(=O)c1ccc(-[n+]2c(-c3ccccc3)cc(-c3ccccc3)cc2-c2ccccc2)cc1` has measured inhibition not below 30%. Thanks!
Not satisfied

Hello, I need to know if `CCn1nc(-c2ccccc2)nc2c(=O)n(C)c(=O)nc1-2` has measured inhibition not below 30%. Thanks!
Not satisfied

Hello, I need to know if `C[C@]12CC[C@H](O)C[C@H]1CC[C@@H]1[C@@H]2C[C@@H](O)[C@]2(C)[C@@H](C3=CC(=O)OC3)CC[C@]12O` has measured inhibition not below 30%. Thanks!
Satisfied

###

# assayed system: Tumor necrosis factor receptor superfamily member 10B (Homo sapiens) (UniProt O14763)
# Sequence (O14763 whole entry, looked up): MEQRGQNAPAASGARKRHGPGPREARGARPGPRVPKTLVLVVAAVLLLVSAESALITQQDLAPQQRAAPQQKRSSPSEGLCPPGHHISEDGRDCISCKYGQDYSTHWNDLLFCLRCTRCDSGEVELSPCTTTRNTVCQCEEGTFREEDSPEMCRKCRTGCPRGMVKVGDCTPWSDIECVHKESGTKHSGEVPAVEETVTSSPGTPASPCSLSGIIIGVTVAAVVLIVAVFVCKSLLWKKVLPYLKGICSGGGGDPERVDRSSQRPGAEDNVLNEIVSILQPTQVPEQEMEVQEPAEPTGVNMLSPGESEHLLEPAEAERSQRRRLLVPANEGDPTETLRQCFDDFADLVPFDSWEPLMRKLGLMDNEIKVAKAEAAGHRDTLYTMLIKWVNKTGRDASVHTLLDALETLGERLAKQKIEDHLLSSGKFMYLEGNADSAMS
# method notes: caspase-8 TRAIL sensitization, hit retest, confirmation, cell-based, NB7+caspase-8, with/without TRAIL, luminescence panel (AID 651596)
# conditions used: NB7 neuroblastoma + caspase-8, TRAIL sensitization, luminescence viability, with TRAIL, mean of runs, at 10 µM, stronger effect = higher value
Exercise: for every item that follows, state its recorded activity.
One number for each entry, in %.

See these solved cases before continuing.
# compound, activity / %
rows = [
    ("CC(=O)OC[C@]12CCC(C)=C[C@H]1O[C@@H]1[C@H](O)[C@@H](OC(C)=O)[C@@]2(C)[C@]12CO2", 95.1),
    ("C[C@]12CC[C@H]3C(CCC4(O)CC(O)CC[C@]34C=O)C1=CC[C@H]2c1ccc(=O)oc1 (stereo partly drawn)", 70.2),
    ("CCCCCN1C(=O)c2ccccc2[C@@]2(C(=O)OCC)Cc3cc(OC)ccc3[C@@H]12", 47.4),
    ("CCOC(=O)[C@]12Cc3cc4ccccc4cc3[C@H]1N(Cc1ccccc1)C(=O)c1cc(OC)ccc12", 46.5),
]

Give measured activity for every item shown.
1. Nc1ncnc2c1ccn2[C@@H]1O[C@H](CO)[C@@H](O)[C@H]1O
2. CN(C)C(=O)Oc1ccc(OCc2nc3ccccc3[nH]2)cc1
3. CC1CCC(C(C)C)C(OC(=O)Cn2c(COc3ccccc3)[n+](C)c3ccccc32)C1 (stereo not drawn)

97.7
75.7
66.9

Give measured activity for every item shown.
1. CCOC(=O)[C@]12Cc3ccc(C)cc3[C@H]1N(C1CCCCC1)C(=O)c1cc(OC)ccc12
2. CCCCCN1C(=O)c2cc(OC)ccc2[C@@]2(C(=O)OCC)Cc3cc(Cl)ccc3[C@@H]12

97.5
87.2
